Assay: soluble fraction after stress (log2 fold change); higher = more stays soluble; pooled small domains, quantitative proteomics;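 note: 20 min heating vs room temperature control held 20 min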
Conditions: stress: 75 degC
Record 1.0 whenever soluble fraction (log2) is at -0.2 or higher; record 0.0 when lower.

Please review the entries below; each comes with its answer.
Qu. Hi, just wondering whether `HMDLGLTDDQRLVYGLLSPTVPRSSGELLGMVDFGRSKLSRILKELIELGQVFTVGVGRGLKYKRG` shows soluble fraction (log2) of -0.2 or higher.
Ans. 0.0

Qu. Hi, just wondering whether `HMEKKEWVIYITGAVKKPGVYRIPEGARVYQALEAAGGFTPEADRDAVNLAAMLQDGAHIKFPAVGEEV` shows soluble fraction (log2) of -0.2 or higher.
Ans. 1.0

Qu. Hi, just wondering whether `HMSLQNTMANFAGGVLVLFLKPFKAGDYIVTKDGEGTVASIGLVYTTLLTIENKRIVIPNSSISNSPITN` shows soluble fraction (log2) of -0.2 or higher.
Ans. 1.0

Qu. Hi, just wondering whether `HMDAKQLQSLKNNNEQLAGFIVRLTNFYEGLSPDIDAELSKLRSHLSGKVDYTLATVSINKINQLFMLEP` shows soluble fraction (log2) of -0.2 or higher.
Ans. 0.0

Qu. Hi, just wondering whether `HMTKNIIVTTSVKTSDELVEVAKNHALNLELDFNYRNKKTIKELLSSFDGLVVIYKNKISYFEDNSELF` shows soluble fraction (log2) of -0.2 or higher.
Ans. 1.0

***
Qu. Hi, just wondering whether `HMESEAKLGVAFNGKTRFDMTFPADADNKTIEEAVLADERAQKYLEGFQVAKVIIVPKRMVNIVLK` shows soluble fraction (log2) of -0.2 or higher.
Ans. 1.0

Qu. Hi, just wondering whether `HMVTPAQQARDTLLGALVGLARATTSEPKTDDTDVVLNAGLRLAAQPDAPEERLQRMLAIVQTEKHRV` shows soluble fraction (log2) of -0.2 or higher.
Ans. 1.0
